- test: IN Cell qHTS Assay for Inhibitors of the mTORC1 Signaling Pathway in MEF (Tsc2-/-, p53-/-) Cells: Sytravon; also: nearly all actives have a fitted effect of over 60% in size
- run.conditions: phospho-rpS6 immunofluorescence, 24 h; series mostly up to 38.3 µM
- Description: NIH Molecular Libraries Probe Production Centers Network [MLPCN] NIH Chemical Genomics Center [NCGC] […] NCGC IN Cell Assay Protocol: For quantitative high throughput analysis of mTORC1 signaling, we developed a cell-based assay for immuno-fluorescence based detection of rpS6 phosphorylation on the Acumen Explorer that will be used a platform for the primary small molecule screen. […]
Hit rate of the full screen: of about 2,100 compounds, about 210 (10%) were called active. Not shown: some 53% with an inconclusive outcome. Calls follow the shape of the dose curve; as a rule, active = well fitted inhibition curve with a large enough effect; inconclusive = small, poorly fitted or top-dose-only effect, or effect the other way; inactive = no such curve, though single readings can be large or run the other way. Some of the results follow.
Outcome codes: active, inactive

[
  {
    "molecule": "COc1ccc(Cl)cc1NC(=O)c1c(NCc2cccnc2)sc2c1CCC(C)C2 (configuration not stated)",
    "classification": "inactive"
  },
  {
    "molecule": "COc1ccc(NC(=O)c2ccco2)cc1NC(=O)COc1ccc(Cl)c(C)c1",
    "classification": "inactive"
  },
  {
    "molecule": "COc1cc(NC(=O)c2cccc(F)c2)ccc1NC(=O)c1cc2ccccc2o1",
    "classification": "active"
  },
  {
    "molecule": "Cc1cccc(NC(=O)c2oc3ccc(S(=O)(=O)N4CCC5(CC4)OCCO5)cc3c2C)c1C",
    "classification": "inactive"
  },
  {
    "molecule": "COc1ccc(Cn2c(C(=O)O)c(CNCC(C)c3ccccc3)c3ccc(OC)cc32)cc1 (configuration not stated)",
    "classification": "inactive"
  },
  {
    "molecule": "CSc1ccc(CCNS(=O)(=O)c2cc(-c3cc(C)no3)ccc2C)cc1",
    "classification": "inactive"
  },
  {
    "molecule": "CS(=O)(=O)N(CC(=O)NCCc1ccccc1)c1cc(C(F)(F)F)ccc1Cl",
    "classification": "active"
  },
  {
    "molecule": "O=C(CSc1nc(-c2ccccc2)[nH]c1-c1ccccc1)Nc1ccc2c(c1)OCO2",
    "classification": "inactive"
  },
  {
    "molecule": "COc1cc(NC(=O)Cn2ccc3ccccc3c2=O)cc(OC)c1OC",
    "classification": "inactive"
  },
  {
    "molecule": "CCCn1c2ccccc2c2cnn(CC(=O)N(CCCOC)Cc3ccco3)c(=O)c21",
    "classification": "inactive"
  },
  {
    "molecule": "COc1ccc(Cl)cc1NC(=O)c1c(NCc2cccs2)sc2c1CCC(C)C2 (configuration not stated)",
    "classification": "inactive"
  },
  {
    "molecule": "CCN(CC)CCNC(=O)c1cn(CCOC)c(=O)c2c1c1ccccc1n2C",
    "classification": "inactive"
  }
]

----------
- test: IN Cell qHTS Assay for Inhibitors of the mTORC1 Signaling Pathway in MEF (Tsc2-/-, p53-/-) Cells: Sytravon; also: nearly all actives have a fitted effect of over 60% in size
- run.conditions: phospho-rpS6 immunofluorescence, 24 h; series mostly up to 38.3 µM
- From the text: NIH Molecular Libraries Probe Production Centers Network [MLPCN] NIH Chemical Genomics Center [NCGC] […] NCGC IN Cell Assay Protocol: For quantitative high throughput analysis of mTORC1 signaling, we developed a cell-based assay for immuno-fluorescence based detection of rpS6 phosphorylation on the Acumen Explorer that will be used a platform for the primary small molecule screen. […]
Out of some 2,100 compounds screened, about 210 (10%) were called active. Another 53% or so got no clear call; they are omitted. Calls follow the shape of the dose curve; as a rule, active = well fitted inhibition curve with a large enough effect; inconclusive = small, poorly fitted or top-dose-only effect, or effect the other way; inactive = no such curve, though single readings can be large or run the other way. This is one part of the list.
Possible outcomes: true for active, false for inactive

[
  {
    "compound": "CC(=O)Nc1ccc(NC(=O)c2nc(S(=O)(=O)Cc3ccc(F)cc3)ncc2Cl)cc1",
    "classification": "true"
  },
  {
    "compound": "Cc1ccc(NC(=O)c2cc(S(=O)(=O)NC3CCCCC3)ccc2F)cc1Cl",
    "classification": "false"
  },
  {
    "compound": "COc1ccc2c(c1)c(=O)c(S(=O)(=O)c1ccc(Cl)cc1)cn2C",
    "classification": "false"
  },
  {
    "compound": "CCCCOc1cccc(NC(=O)c2cccc(C(=O)Nc3cccc(OCCCC)c3)c2)c1",
    "classification": "true"
  },
  {
    "compound": "CC(C)c1ccc(C2CC(=O)Nc3cc4c(cc32)OCCO4)cc1 (configuration not stated)",
    "classification": "false"
  },
  {
    "compound": "Cc1ccc(C)c(NC(=O)c2nc(S(=O)(=O)Cc3ccc(F)cc3)ncc2Cl)c1",
    "classification": "true"
  },
  {
    "compound": "CCc1ccc(NC(=O)c2cc(S(=O)(=O)NC3CCCC3)ccc2F)cc1",
    "classification": "false"
  },
  {
    "compound": "COc1ccc(/C=C/c2nc(C#N)c(NC3CCCCC3)o2)cc1OC",
    "classification": "false"
  },
  {
    "compound": "CC(=O)N1c2ccc(S(=O)(=O)NCC3CCC(C(=O)Nc4cc(C)cc(C)c4)CC3)cc2CC1C (configuration not stated)",
    "classification": "false"
  },
  {
    "compound": "COc1ccc(OC)c(NC(=O)c2c(NCc3ccc(OC)c(OC)c3)sc3c2CCC(C)C3)c1 (configuration not stated)",
    "classification": "false"
  },
  {
    "compound": "CC(C)CC(=O)Nc1cc(-c2ccccc2F)nn1-c1ccccc1",
    "classification": "false"
  },
  {
    "compound": "Cc1ccc2c(CNCCc3ccc(Cl)cc3)c(C(=O)O)n(Cc3ccc(F)cc3)c2c1",
    "classification": "false"
  }
]
